Source of measurements: ChEMBL document CHEMBL5380787

Tested on: OCI-AML2
Experiment: Cytotoxicity against human OCI-AML2 cells assessed as reduction in cell viability at 1 uM incubated for 24 hrs by celltiter-glo assay relative to control
Type: functional
readout: Activity

COC(=O)[C@@H]1CCCN1C(=O)[C@@H](O)[C@H](N)CC(C)C :: 42%

Kindly indicate its recorded Activity. Item: "COC(=O)[C@@H](NC(=O)[C@@H]1CCCN1C(=O)[C@@H](O)[C@H](N)CC(C)C)C(C)C"
32%

Fill in Activity for record "CC[C@H](C)[C@H](NC(=O)[C@@H]1CCCN1C(=O)[C@@H](O)[C@H](N)CC(C)C)C(=O)OC"
42%

Give Activity for the following compound: "COC(=O)[C@H](C)NC(=O)[C@@H]1CCCN1C(=O)[C@@H]1CCCN1C(=O)[C@@H](O)[C@H](N)CC(C)C"
95%

Complete the entry with Activity for "COC(=O)[C@H](CC(C)C)NC(=O)[C@@H]1CCCN1C(=O)[C@@H](O)[C@H](N)CC(C)C"
37%

Give reported Activity value for "COC(=O)[C@H](Cc1ccccc1)NC(=O)[C@@H]1CCCN1C(=O)[C@@H](O)[C@H](N)CC(C)C"
42%

---

Listing of recorded IC50 by entry.
Biological target: Xaa-Pro dipeptidase (Homo sapiens)
Sequence (P12955 whole entry): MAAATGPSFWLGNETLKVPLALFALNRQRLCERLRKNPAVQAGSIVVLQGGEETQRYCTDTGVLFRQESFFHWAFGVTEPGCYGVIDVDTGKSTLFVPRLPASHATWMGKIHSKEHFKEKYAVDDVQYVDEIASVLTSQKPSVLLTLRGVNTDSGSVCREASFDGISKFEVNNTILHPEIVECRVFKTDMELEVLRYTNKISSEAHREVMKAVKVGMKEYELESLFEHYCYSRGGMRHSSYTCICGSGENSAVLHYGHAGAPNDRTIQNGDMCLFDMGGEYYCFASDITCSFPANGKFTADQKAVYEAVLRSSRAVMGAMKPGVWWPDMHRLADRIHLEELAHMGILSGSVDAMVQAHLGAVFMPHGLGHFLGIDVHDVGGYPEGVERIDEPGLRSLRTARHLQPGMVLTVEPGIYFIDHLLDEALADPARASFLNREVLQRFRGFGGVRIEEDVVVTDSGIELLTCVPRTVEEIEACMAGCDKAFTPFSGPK
Assay: Inhibition of recombinant human PEPD using Ala-Pro as substrate assessed as alanine release by measuring increase in fluorescense signal by fluorescence based analysis

CC(C)C[C@@H](N)[C@H](O)C(=O)N1CCC[C@H]1CNS(C)(=O)=O :: > 100 µM
CC(C)C[C@H](NC(=O)[C@@H]1CCCN1C(=O)[C@@H](O)[C@H](N)CC(C)C)C(=O)NCCc1ccc2cc[nH]c2c1 :: 10 µM
COC(=O)[C@H](CC(C)C)NC(=O)[C@@H](O)[C@H](N)Cc1ccccc1 [BESTATIN METHYL ESTER] :: > 100 µM
CC(C)C[C@@H](N)[C@H](O)C(=O)N1CCCC1 :: > 100 µM
COC(=O)[C@H](Cc1ccccc1)NC(=O)[C@@H](O)[C@H](N)CC(C)C :: > 100 µM

# ---- query molecule ----
Look up and report measured IC50 for this entry: "COC(=O)[C@@H]1C[C@H](O)CN1C(=O)[C@@H](O)[C@H](N)CC(C)C"
> 100 µM

---

Target: Xaa-Pro aminopeptidase 1 (Homo sapiens)
Sequence (Q9NQW7 whole entry): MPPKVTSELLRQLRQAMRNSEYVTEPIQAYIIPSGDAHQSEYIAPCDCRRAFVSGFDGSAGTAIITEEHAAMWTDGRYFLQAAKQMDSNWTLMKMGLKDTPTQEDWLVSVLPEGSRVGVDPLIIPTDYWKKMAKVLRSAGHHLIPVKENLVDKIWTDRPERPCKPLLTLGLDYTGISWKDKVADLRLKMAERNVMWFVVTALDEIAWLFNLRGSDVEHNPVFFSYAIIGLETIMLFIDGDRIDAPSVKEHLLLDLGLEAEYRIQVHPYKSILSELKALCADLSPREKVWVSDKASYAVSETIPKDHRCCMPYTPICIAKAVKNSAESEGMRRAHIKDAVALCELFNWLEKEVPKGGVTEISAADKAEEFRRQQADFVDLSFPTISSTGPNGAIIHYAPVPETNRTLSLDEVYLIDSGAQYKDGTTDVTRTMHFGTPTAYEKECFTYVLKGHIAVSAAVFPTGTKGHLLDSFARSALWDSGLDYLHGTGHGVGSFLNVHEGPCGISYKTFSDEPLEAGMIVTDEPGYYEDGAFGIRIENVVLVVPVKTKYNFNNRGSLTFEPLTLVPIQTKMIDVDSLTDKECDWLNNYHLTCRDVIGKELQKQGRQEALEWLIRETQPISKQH
Test: Inhibition of 6-His tagged XPNPEP1 (unknown origin) expressed in Escherichia coli Rosetta DE3 cells using H-Lys(abz)-Pro-Pro-pNA as substrate at 20 uM incubated for 60 mins by fluorescence based analysis relative to control
readout: inhibition (%)
Report the figure in % without appending any unit label.

COC(=O)[C@H](CC(C)C)NC(=O)[C@@H]1CCCN1C(=O)[C@@H](O)[C@H](N)CC(C)C :: 74
COC(=O)[C@@H](NC(=O)[C@@H]1CCCN1C(=O)[C@@H](O)[C@H](N)CC(C)C)C(C)C :: 65
COC(=O)[C@H](C)NC(=O)[C@@H]1CCCN1C(=O)[C@@H]1CCCN1C(=O)[C@@H](O)[C@H](N)CC(C)C :: 23

// fetch inhibition given entry "COC(=O)[C@@H]1CCCN1C(=O)[C@@H](O)[C@H](N)CC(C)C"
96

Give inhibition for "CC[C@H](C)[C@H](NC(=O)[C@@H]1CCCN1C(=O)[C@@H](O)[C@H](N)CC(C)C)C(=O)OC"
68

Report inhibition, nothing else, for this molecule: "COC(=O)[C@H](Cc1ccccc1)NC(=O)[C@@H]1CCCN1C(=O)[C@@H](O)[C@H](N)CC(C)C"
81
